Origin of measurements: PubChem BioAssay (EPA / NIEHS)

Test: Tanguay_ZF_120hpf_PIG_legacy: (Legacy) Oregon State University Tanguay Lab 120 Hour Post-fertilization zebrafish Assay for Pigmentation Malformation (AID 2283650);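 further: dechorionated Tropical 5D zebrafish embryos exposed singly from 6 to 120 hpf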
Results filed as inconclusive are left out. Calls of active or inactive are those of the source. How the source made its calls: active means hit-call score of the fitted dose curve at least 0.9, where 1 is the maximum; inconclusive means response in the unintended direction; inactive means score below 0.9.
Classes used: label 1 (active), label 0 (inactive)

COMPOUND: CN(C)C=O
LABEL: label 0
--
COMPOUND: OC1CCCCC1
LABEL: label 0
--
COMPOUND: OCCC(F)(F)C(F)(F)C(F)(F)C(F)(F)C(F)(F)C(F)(F)C(F)(F)C(F)(F)F
LABEL: label 0
--
COMPOUND: CCCCCCCC(=O)O
LABEL: label 0
--
COMPOUND: CCCOC(=O)c1ccc(O)cc1
LABEL: label 1
--
COMPOUND: CC(C)(C)c1cccc(C(C)(C)C)c1O
LABEL: label 0
--
COMPOUND: COCC(C)O (centres undefined)
LABEL: label 0
--
COMPOUND: CCCCCCC(=O)O
LABEL: label 0
--
COMPOUND: Cc1cc(C)c(O)c(C)c1
LABEL: label 0
--
COMPOUND: CC(O)CO (centres undefined)
LABEL: label 0
--
COMPOUND: C=C(C)C(=O)OCCC(F)(F)C(F)(F)C(F)(F)C(F)(F)C(F)(F)C(F)(F)F
LABEL: label 0
--
COMPOUND: N#C[C@@H]1CC(F)(F)CN1C(=O)CNC1CC2CCC(C1)N2c1ncccn1 (some centres undefined)
LABEL: label 0
--
COMPOUND: CC[C@H](c1ccc(O)cc1)[C@@H](CC)c1ccc(O)cc1
LABEL: label 0
--
COMPOUND: O=C(O)Cc1cc(I)c(Oc2cc(I)c(O)c(I)c2)c(I)c1
LABEL: label 1

###

Read-out: Heat shock 70 kDa protein 1 (HSPA1A), gene 3303
Test: LTEA_HepaRG_HSPA1A: Life Technologies and Expression Analysis (LTEA) Assay for Heat shock 70 kDa protein 1 (HSPA1A) using HepaRG (AID 2283502)
Details: mRNA level, 48 h; actives raise or lower the signal
Protocol: LTEA_HepaRG is a cell based, multiplexed-readout assay that uses HepaRG, a human liver cell line, with measurements taken at 48 hours after chemical dosing on a 96-well plate.LTEA_HepaRG_HSPA1A is one of 102 assay component(s) measured in the LTEA HepaRG cell culture assay. It is a marker of Oxidative Stress.Data from the assay component LTEA_HepaRG_HSPA1A was analyzed into 1 endpoint. […]
Activity calls are given as the source filed them. Rule for the calls: active = hit-call score of the fitted dose curve at least 0.9, where 1 is the maximum; inactive = score below 0.9.
Classes used: active, inactive

MOLECULE: CCc1ccc(CCOc2ccc(CC3SC(=O)NC3=O)cc2)nc1 (stereo not given)
LABEL: active

MOLECULE: CC(C)(C)CC(C)(C)c1ccc(O)c(-n2nc3ccccc3n2)c1
LABEL: active

MOLECULE: OC1CCCCC1
LABEL: inactive

MOLECULE: C#C[C@]1(O)CC[C@H]2[C@@H]3CCC4=CC(=O)CC[C@@H]4[C@H]3CC[C@@]21C
LABEL: inactive

MOLECULE: Cc1cc(CCN2CCN(c3nsc4ccccc34)CC2)cc2c1NC(=O)CC2(C)C
LABEL: active

MOLECULE: CCc1nn(C2CCCCC2)c2cc(C3(C#N)CCC(C(=O)O)CC3)ccc12 (stereo not given)
LABEL: active

MOLECULE: c1ccc2c(c1)Cc1ccccc1-2
LABEL: inactive

MOLECULE: CCCCCCC(=O)O
LABEL: inactive

MOLECULE: COc1ccc([N+](=O)[O-])cc1N
LABEL: inactive

MOLECULE: CCOC(=O)CC(O)(CC(=O)OCC)C(=O)OCC
LABEL: inactive

MOLECULE: CC[C@H](C)[C@@H](C(=O)O)n1sc2ccccc2c1=O
LABEL: inactive

MOLECULE: CCCOc1sc(C(=O)N2CCC(c3cc(CN)ccc3F)CC2)c(C)c1Br
LABEL: inactive

MOLECULE: CC(C)(C)c1cccc(C(C)(C)C)c1O
LABEL: inactive

MOLECULE: CC(C)(C)c1ccc(O)c(C(C)(C)C)c1
LABEL: inactive

MOLECULE: CC(C)CCCCCCOC(=O)CCCCC(=O)OCCCCCCC(C)C
LABEL: inactive

MOLECULE: CCCCC(CC)COC(=O)CCCCC(=O)OCc1ccccc1 (stereo not given)
LABEL: inactive

MOLECULE: CCC(=C(c1ccc(O)cc1)c1ccc(OCCN(C)C)cc1)c1ccccc1
LABEL: active

MOLECULE: NC(=O)N1C(=O)C(C(=O)c2cc(Cl)cs2)c2cc(F)c(Cl)cc21 (stereo not given)
LABEL: active

MOLECULE: CCCCCCCCCCCCCCCS(=O)(=O)Oc1ccccc1
LABEL: inactive

MOLECULE: O=[N+]([O-])c1ccc(O)cc1
LABEL: inactive

MOLECULE: CCCCCCCCCCCCN1CCCC1=O
LABEL: inactive

MOLECULE: Oc1cc2ccccc2c2ccccc12
LABEL: inactive

MOLECULE: C[C@@H]1C[C@H]2[C@@H]3CCC4=CC(=O)C=C[C@]4(C)[C@@]3(F)[C@@H](O)C[C@]2(C)[C@@]1(O)C(=O)COP(=O)(O)O
LABEL: inactive

MOLECULE: CN1CCC[C@H]1c1cccnc1
LABEL: inactive

MOLECULE: O=C(O)Cc1cc(I)c(Oc2cc(I)c(O)c(I)c2)c(I)c1
LABEL: active

###

Assay: Tanguay_ZF_120hpf_AXIS_legacy: (Legacy) Oregon State University Tanguay Lab 120 Hour Post-fertilization zebrafish Assay for Body Axis Malformation (AID 2283635)
Records with an inconclusive call do not appear. Active and inactive are the calls of the source. How the source made its calls: active means hit-call score of the fitted dose curve at least 0.9, where 1 is the maximum; inconclusive means response in the unintended direction; inactive means score below 0.9.
Classes used: active, inactive

COMPOUND: NC(=O)N(O)[C@@H]1C=C[C@H](Oc2cccc(Oc3ccc(F)cc3)c2)C1
LABEL: inactive
--
COMPOUND: CC(C)(C)c1cc(C(C)(C)C)c(O)c(C(C)(C)C)c1
LABEL: inactive
--
COMPOUND: Cc1oc(-c2ccccc2)nc1CCOc1ccc(C[C@H](Nc2ccccc2C(=O)c2ccccc2)C(=O)O)cc1
LABEL: inactive
--
COMPOUND: CCCCC(CC)COC(=O)CCCCC(=O)OCc1ccccc1 (stereo not drawn)
LABEL: inactive
--
COMPOUND: CCN(CC)CCNc1ccc(CNC=O)c2sc3ccc(OC)cc3c(=O)c12
LABEL: inactive
--
COMPOUND: CCOC(=O)CC(O)(CC(=O)OCC)C(=O)OCC
LABEL: inactive
--
COMPOUND: ClC1=C(Cl)C(Cl)(Cl)C(Cl)=C1Cl
LABEL: inactive
--
COMPOUND: Oc1cc2ccccc2c2ccccc12
LABEL: active

###

Read-out: Transforming Growth Factor (TGFB1), TGFB1 (gene 7040)
Assay: LTEA_HepaRG_TGFB1: Life Technologies and Expression Analysis (LTEA) Assay for Transforming Growth Factor (TGFB1) Transporter using HepaRG (AID 2283533)
Conditions: mRNA level, 48 h; actives raise or lower the signal
The source made the active and inactive calls. Rule for the calls: active = hit-call score of the fitted dose curve at least 0.9, where 1 is the maximum; inactive = score below 0.9.
Classes used: Y (active), N (inactive)

MOLECULE: OCCC(F)(F)C(F)(F)C(F)(F)C(F)(F)C(F)(F)C(F)(F)C(F)(F)C(F)(F)F
LABEL: N
--
MOLECULE: N#C[C@@H]1CC(F)(F)CN1C(=O)CNC1CC2CCC(C1)N2c1ncccn1 (some centres not stated)
LABEL: N
--
MOLECULE: CC[C@H](C)[C@@H](C(=O)O)n1sc2ccccc2c1=O
LABEL: N
--
MOLECULE: CCCCCCCCC(=O)O
LABEL: N
--
MOLECULE: CN1CCC[C@H]1c1cccnc1
LABEL: N
--
MOLECULE: NC(=O)N1C(=O)C(C(=O)c2cc(Cl)cs2)c2cc(F)c(Cl)cc21 (configuration not stated)
LABEL: N
--
MOLECULE: O=C(O)Cc1cc(I)c(Oc2cc(I)c(O)c(I)c2)c(I)c1
LABEL: Y
--
MOLECULE: CCCCCCCC(=O)O
LABEL: N
--
MOLECULE: c1ccc2c(c1)Cc1ccccc1-2
LABEL: N
--
MOLECULE: OC1CCC(C2CCCCC2)CC1 (configuration not stated)
LABEL: N
--
MOLECULE: CC(C)(C)CC(C)(C)c1ccc(O)c(-n2nc3ccccc3n2)c1
LABEL: N
--
MOLECULE: CC[C@H](c1ccc(O)cc1)[C@@H](CC)c1ccc(O)cc1
LABEL: Y
--
MOLECULE: O=[N+]([O-])c1ccc(O)cc1
LABEL: N
--
MOLECULE: OCCC(F)(F)C(F)(F)C(F)(F)C(F)(F)C(F)(F)C(F)(F)F
LABEL: N
--
MOLECULE: Oc1cccc(O)c1
LABEL: N
--
MOLECULE: COC(=O)CCCCC(=O)OC
LABEL: N
--
MOLECULE: O=C(OCCOCCOC(=O)c1ccccc1)c1ccccc1
LABEL: N
